# assaySystem: Human M4 (Homo sapiens, UniProt P08173)
# Construct: expressed in transfected cells
# Sequence (P08173 1-479): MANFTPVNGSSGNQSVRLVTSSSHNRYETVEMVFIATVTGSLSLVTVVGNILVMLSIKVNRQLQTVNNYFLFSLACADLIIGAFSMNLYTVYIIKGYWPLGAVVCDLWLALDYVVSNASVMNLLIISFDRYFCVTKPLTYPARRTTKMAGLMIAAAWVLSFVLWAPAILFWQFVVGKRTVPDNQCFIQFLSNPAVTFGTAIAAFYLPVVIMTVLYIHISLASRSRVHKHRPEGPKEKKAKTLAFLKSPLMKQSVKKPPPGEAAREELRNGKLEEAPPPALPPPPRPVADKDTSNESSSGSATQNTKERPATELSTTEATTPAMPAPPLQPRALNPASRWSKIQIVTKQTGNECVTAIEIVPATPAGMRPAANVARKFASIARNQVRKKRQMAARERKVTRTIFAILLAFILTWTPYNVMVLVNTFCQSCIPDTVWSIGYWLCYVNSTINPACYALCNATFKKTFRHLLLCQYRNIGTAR
# testProtocol: mAChR M4 cell-based functional assay (calcium flux, potentiation of EC20 acetylcholine response), hM4-Gqi5 CHO-K1 cells
# testConditions: CHO-K1; % ACh maximum at 30 μM; human M4; read-out: Emax
valueKind: Emax at 30 µM (%)

molecule: Cc1c(N2CCc3ncc(C(=O)Nc4ccccc4F)cc3C2)nn2cnnc2c1C [Compound 59]
Emax at 30 µM / %: 89
--
molecule: Cc1ccccc1Nc1cnc2c(c1)CN(c1nn3cnnc3c(C)c1C)CC2 [Compound 53]
Emax at 30 µM / %: 91
--
molecule: Cc1ccc(F)c(Nc2cnc3c(c2)CN(c2nn4cnnc4c(C)c2C)CC3)c1 [Compound 69]
Emax at 30 µM / %: 90
